Where do these numbers come from? They come from the supplement of paper PMC10567573.

B1: PDS5B (parent)
chain: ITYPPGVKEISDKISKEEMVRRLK

variants of: B1; assay: protein stability index of a GFP-peptide fusion (GPS, HEK-293T) (PSI 1-6); higher = more stable; settings: c terminus: a fixed tail appended;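 further: lentivirally expressed fusions sorted by FACS into six bins by GFP to DsRed ratio, PSI derived from sequencing read proportions per bin multiplied by bin number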
Could you please report measured protein stability index for the items listed next?
The answer should be a number; do not append a unit.

Item under review: Y3K . Reported protein stability index?
4.64

Item under review: I10R . Reported protein stability index?
3.74

Item under review: V20L . Reported protein stability index?
3.49

Item under review: K16V . Reported protein stability index?
3.36

Item under review: L23Y . Reported protein stability index?
3.7

Item under review: D12Q . Reported protein stability index?
3.29

Item under review: I10V . Reported protein stability index?
4.62

Item under review: K13N . Reported protein stability index?
3.72

Item under review: R22D . Reported protein stability index?
4.92

Item under review: K13E . Reported protein stability index?
4.34

Item under review: M19S . Reported protein stability index?
5.02

Item under review: E17D . Reported protein stability index?
3.72

Item under review: M19Y . Reported protein stability index?
3.96

Item under review: L23A . Reported protein stability index?
4.61

Item under review: K8A . Reported protein stability index?
4.5

Item under review: S15D . Reported protein stability index?
4.26

Item under review: P5E . Reported protein stability index?
4.11

Item under review: V7W . Reported protein stability index?
3.82

Item under review: S11A . Reported protein stability index?
3.85

Item under review: E18L . Reported protein stability index?
1.84

Item under review: D12K . Reported protein stability index?
3.43

Item under review: V20D . Reported protein stability index?
5.06

Item under review: R21A . Reported protein stability index?
2.21

Item under review: P5F . Reported protein stability index?
3.79

Item under review: G6Y . Reported protein stability index?
2.88

Item under review: R21F . Reported protein stability index?
3.85

Item under review: R22S . Reported protein stability index?
4.24

Item under review: K8R . Reported protein stability index?
3.99

Item under review: V20R . Reported protein stability index?
4.61

Item under review: K13D . Reported protein stability index?
4.69

Item under review: K13F . Reported protein stability index?
3.42

Item under review: K8Y . Reported protein stability index?
3.21

Item under review: E17M . Reported protein stability index?
2.65

Item under review: S11M . Reported protein stability index?
2.35

Item under review: T2S . Reported protein stability index?
3.72

Item under review: L23W . Reported protein stability index?
3.1

Item under review: E18I . Reported protein stability index?
2.84

Item under review: E9G . Reported protein stability index?
4.19

Item under review: P5C . Reported protein stability index?
3.62

Item under review: K8I . Reported protein stability index?
3.12

Item under review: V7K . Reported protein stability index?
4.55

Item under review: P5H . Reported protein stability index?
3.67

Item under review: V7N . Reported protein stability index?
4.24

Item under review: I14Q . Reported protein stability index?
5.02

Item under review: I1H . Reported protein stability index?
5.04

Item under review: K24S . Reported protein stability index?
3.23
